# testedOn: T1, Human soluble IL-6R (human, UniProt P08887 20-358)
# T1 construct: Soluble recombinant form; biotinylated in some assays; also called hIL-6R; human IL-6R
# T1 sequence (looked up): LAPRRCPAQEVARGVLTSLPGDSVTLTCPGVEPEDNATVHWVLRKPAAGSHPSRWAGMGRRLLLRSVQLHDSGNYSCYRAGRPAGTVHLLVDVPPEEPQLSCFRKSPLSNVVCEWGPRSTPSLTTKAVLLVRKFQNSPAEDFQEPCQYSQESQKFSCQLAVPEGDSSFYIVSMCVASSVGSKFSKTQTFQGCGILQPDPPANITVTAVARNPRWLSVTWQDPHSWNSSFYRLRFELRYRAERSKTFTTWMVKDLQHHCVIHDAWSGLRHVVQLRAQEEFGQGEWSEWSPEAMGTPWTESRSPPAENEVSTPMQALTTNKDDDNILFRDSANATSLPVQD
# testSummary: Biacore T100, IL-6R covalently coupled
recordedEndpoint: koff (s⁻¹)
Write down the numeric answer in s⁻¹ and omit the unit.

Look up koff for this binder: IL6R65 (VHH, also called ILR65; parent Nanobody) VHH: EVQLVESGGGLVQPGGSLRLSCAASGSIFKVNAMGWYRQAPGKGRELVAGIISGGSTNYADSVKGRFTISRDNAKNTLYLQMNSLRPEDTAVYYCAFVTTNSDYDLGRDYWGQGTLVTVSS
0.0038

Shifting focus to the binder that follows.
Record request: koff value, item PMP20E10 (VHH, not shown: c-myc and (His)6 tags) VHH: EVQLVESGGGLVQPGGSLRLSCAASGSVFKINVMAWYRQAPGKGRELVAGIVSGGSTSYADSVKGRFTISRDNAKNTLYLQMNSLRPEDTAVYYCAFITTESDYDLGRRYWGQGTLVTVSS
3.3e-05
